Listed here are molecules together with their documented melting point.
Counter-ions that a name gives are not always drawn.
# unit: °C | format: bare number

# annotated cases, reported melting point shown
1) COc1cc(OC)cc(N(CC2CC2)c2ccc3ncc(-n4ccc(C)n4)nc3c2)c1 [Compound 31] = 107
2) COc1cc(OC)cc(N(CC2CC2)c2ccc3ncc(-c4nnc(C)o4)nc3c2)c1 [Compound 85] = 134
3) COc1cc(OC)cc(N(CCCNC(C)C)c2ccc3ncc(-c4ccnc(NC(=O)OC(C)(C)C)c4)nc3c2)c1 [Compound 137] = 172
4) COc1cc(OC)cc(N(CCNC(C)C)c2ccc3ncc(C(=O)N4CCOCC4)nc3c2)c1 (as salt: HCl) (hydrate or solvate) [Compound 181] = 255
5) COc1cc(OC)cc(N(CC2CC2)c2ccc3ncc(-c4ccn[nH]4)nc3c2)c1 (as salt: HCl) [Compound 58] = 134

API: the following record is the query input.
GET /value?item= COc1cc(OC)cc(N(CCCNCC(F)(F)F)c2ccc3ncc(-c4ccn(C)c4)nc3c2)c1 (as salt: HCl) [Compound 5] &field=melting point returns 186

---

assayed-system: Ba/F3-FGFR1-transfected cells (Homo sapiens)
Sequence (P11362 whole entry, change not shown): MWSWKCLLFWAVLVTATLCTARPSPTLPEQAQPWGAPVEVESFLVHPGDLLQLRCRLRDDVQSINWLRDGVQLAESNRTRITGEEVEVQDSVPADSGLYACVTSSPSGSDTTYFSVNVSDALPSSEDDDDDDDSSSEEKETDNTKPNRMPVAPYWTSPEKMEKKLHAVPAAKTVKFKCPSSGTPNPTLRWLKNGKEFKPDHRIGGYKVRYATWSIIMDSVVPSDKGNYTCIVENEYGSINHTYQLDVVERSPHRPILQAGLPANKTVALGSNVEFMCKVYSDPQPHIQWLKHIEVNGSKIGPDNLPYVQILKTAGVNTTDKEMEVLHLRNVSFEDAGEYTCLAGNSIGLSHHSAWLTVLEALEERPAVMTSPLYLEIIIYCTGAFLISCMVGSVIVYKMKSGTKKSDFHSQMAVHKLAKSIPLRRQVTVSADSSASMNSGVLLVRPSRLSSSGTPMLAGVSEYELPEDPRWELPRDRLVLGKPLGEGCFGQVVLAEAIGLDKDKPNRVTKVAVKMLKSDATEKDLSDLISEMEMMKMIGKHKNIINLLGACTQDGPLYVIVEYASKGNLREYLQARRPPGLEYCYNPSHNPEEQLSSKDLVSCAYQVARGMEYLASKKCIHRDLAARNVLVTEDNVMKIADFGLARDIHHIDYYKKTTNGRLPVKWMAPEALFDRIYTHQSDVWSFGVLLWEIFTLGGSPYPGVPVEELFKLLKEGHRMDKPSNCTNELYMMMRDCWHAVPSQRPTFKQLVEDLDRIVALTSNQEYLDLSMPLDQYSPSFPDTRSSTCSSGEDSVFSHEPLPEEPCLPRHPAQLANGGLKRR
method-notes: Ba/F3-FGFR1 (minus IL3) cellular proliferation assay, Alamar Blue
Format: cell-based
assay-setup: minus IL3, 384 well
Protocol: Ba/F3-FGFR1 (Minus IL3 or Plus IL3) (Cellular Proliferation Assay) Cells were put in an incubator at 37° C. and 5% CO2. After 24 hours, 10 μl of Alamar Blue solution (0.5 mM K3Fe(CN)6, 0.5 mM KaFe(CN)6, 0.15 mM Resazurin and 100 mM Phosphate Buffer) was added to the wells, incubated for 4 hours at 37° C. and 5% CO2 before RFU's (Relative Fluorescence Units) (ex. 540 nm., em. 590 nm.) were measured in a flurorescence plate reader. […]
Listed here are compounds together with their documented BAF3-FGFR 1 (MIN IL3) 384 well pIC50.
A bare number is all that is needed in reply.

1) COc1cc(OC)cc(N(CCNC(C)C)c2ccc3ncc(C(=O)N4CCCCC4)nc3c2)c1 = 5.51
2) COc1cc(OC)cc(N(CC2CC2)c2ccc3ncc(-c4cn[nH]n4)nc3c2)c1 = 5.01
3) COc1cc(OC)cc(N(CCNC(C)C)c2ccc3ncc(-c4ccc(N5CCOCC5)nc4)nc3c2)c1 = 7.04

GET /value?item= COc1cc(OC)cc(N(Cc2cccc(CN)n2)c2ccc3ncc(-c4ccc(N)nc4)nc3c2)c1 &field=BAF3-FGFR 1 (MIN IL3) 384 well pIC50 returns 5.88

GET /value?item= COc1cc(OC)cc(N(CCCO)c2ccc3ncc(-c4cnc(N5CCN(C)CC5)c(C)c4)nc3c2)c1 &field=BAF3-FGFR 1 (MIN IL3) 384 well pIC50 returns 6.42

GET /value?item= COc1cc(OC)cc(N(CCNC(C)C)c2ccc3ncc(-n4cnc(COC(C)=O)c4)nc3c2)c1 &field=BAF3-FGFR 1 (MIN IL3) 384 well pIC50 returns 7.13

GET /value?item= COc1cc(OC)cc(N(CCNC(C)C)c2ccc3ncc(C(=O)NCCCN4CCN(C)CC4)nc3c2)c1 &field=BAF3-FGFR 1 (MIN IL3) 384 well pIC50 returns 5.74

GET /value?item= COc1cc(OC)cc(N(CCNC(C)C)c2ccc3ncc(C(=O)N4CCOCC4)nc3c2)c1 &field=BAF3-FGFR 1 (MIN IL3) 384 well pIC50 returns 5.44
